# assayed.target: PD-1/PD-L1 interaction (Homo sapiens)
# Construct: expressed in transfected cells; host or cells: CHO cells (aAPC-PD-L1) co-cultured with Jurkat cells overexpressing PD-1 and an NFAT-luciferase reporter
# Sequence (Q9NZQ7 19-290): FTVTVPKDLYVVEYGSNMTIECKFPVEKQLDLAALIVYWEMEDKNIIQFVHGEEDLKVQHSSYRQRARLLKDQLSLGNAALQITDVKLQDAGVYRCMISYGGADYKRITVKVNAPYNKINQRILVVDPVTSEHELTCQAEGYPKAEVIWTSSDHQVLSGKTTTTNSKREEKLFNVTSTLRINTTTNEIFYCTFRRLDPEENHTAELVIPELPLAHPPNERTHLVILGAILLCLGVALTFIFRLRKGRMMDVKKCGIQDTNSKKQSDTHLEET
# assay.text: PD-1/PD-L1 NFAT reporter co-culture assay
# Type: cell-based
# condition: Jurkat PD-1 NFAT-luciferase cells co-cultured with aAPC-PD-L1 CHO cells, 6 hrs at 37° C.; read-out: EC50 NFAT Luciferase
pEC50: −log10 of the molar value.
quantity.kind: pEC50

Cc1c(COc2cc(OCc3cncc(C#N)c3)c(CNC[C@@H](O)CC(=O)O)cc2Cl)cccc1-c1cccc(-c2ccc3cc(CNC[C@@H](O)CC(=O)O)ccc3n2)c1C [Example 398] ... 5.96

P. Cc1c(COc2ccc(CNC[C@@H](O)CC(=O)O)c(OCc3cncc(C#N)c3)c2)cccc1-c1cccc(COc2ccc(CNC[C@@H](O)CC(=O)O)c(OCc3cncc(C#N)c3)c2)c1C [Example 248]
Q. COc1nc(O[C@H]2CCc3c(-c4cccc(-c5ccc(C6=N[C@H](C)CN6)c(OC)n5)c4Cl)cccc32)c(Br)cc1CN[C@@](C)(CO)C(=O)O [Example 782]
R. Cc1c(COc2cc(OCc3cncc(C#N)c3)c(CNC[C@@H](O)CC(=O)O)cc2Cl)cc(F)cc1-c1cccc(-c2ccc(OCCN3CC[C@@H](O)C3)cc2)c1C [Example 446]
S. COc1nc(-c2cccc(-c3cccc4c3CC[C@@H]4Oc3nc(OC)c(CN4CC[C@@H](c5nnn[nH]5)C4)cc3Cl)c2Cl)ccc1CNC[C@@H]1CCC(=O)N1 [Example 641]
Q) // sort entries: pEC50, high to low To answer, write out the labels according to the requested order.
A) Q, S, R, P
(Q: 7.42, S: 7.22, R: 6.50, P: 6.27)

P. COc1nc(O[C@H]2CCc3c(-c4cccc(-c5ccc(C6=N[C@@H](C)CN6)c(OC)n5)c4Cl)cccc32)c(Br)cc1CN1CC[C@H](O)[C@H](F)C1 [Example 774]
Q. COc1nc(O[C@H]2CCc3c(-c4cccc5c4CC[C@@H]5Oc4nc(OC)c(CNC[C@@H](O)CC(=O)O)cc4Br)cccc32)c(Br)cc1CNC[C@@H](O)CC(=O)O [Example 7]
Q) Sorting by pEC50 in descending order, would P or Q appear first? Answer format: the label of the selected item.
A) Q
(Q: 7.05, P: 6.33)

Cited source: patent US12590062B2
